system: Escherichia coli IAI1; assay: fold change of Putrescine concentration vs plate DMSO controls (fold change (ratio)); higher = more amine produced, active = hit call of the paper (significant change in both replicates, either direction); details: 20 µM; incubation time: 27 h, anaerobic, 37 °C
Property: fold change of Putrescine concentration; scope: individual compounds
Format: numeric value only, no unit, no commentary.

// lookup fold change of Putrescine concentration | system=Escherichia coli IAI1 | key= CNCC(O)c1ccc(O)cc1 (stereo unspecified) [Synephrine] 1.11

Do the same for COP(=S)(OC)Oc1ccc(SC)c(C)c1 please 0.971

Now consider O=C1C=C(N(Cc2ccc(Cl)nc2)CC(F)F)CO1 . 0.94

Now try CNC(=O)/C=C(\C)OP(=O)(OC)OC . 0.968

And Cc1cc(C2CC2)nc(Nc2ccccc2)n1 ? 0.975

How about CON(C)C(=O)Nc1ccc(Cl)c(Cl)c1 ? 0.982

Follow-up item: CCSC(C)CC1CC(=O)C(/C(CC)=N/OC/C=C/Cl)=C(O)C1 (mixture of isomers) 1.02

Can you check c1ccc2c(c1)-c1cccc3cccc-2c13 next? 0.995

# repeat for C[C@]12CCC(=O)C=C1CC[C@@H]1[C@@H]2C(=O)C[C@]2(C)C(=O)CC[C@@H]12 1.09

Here is the next compound: Oc1ccc(Cl)cc1Cc1cc(Cl)ccc1O 1.21

Now consider CCCCC(C#N)(Cn1cncn1)c1ccc(Cl)cc1 (stereo unspecified) and answer again. 0.908

* * *

system: Clostridium sporogenes DSM 1664; test: fold change of Tryptamine concentration vs plate DMSO controls (fold change (ratio)); higher = more amine produced, active = hit call of the paper (significant change in both replicates, either direction); details: 20 µM; incubation time: 27 h, anaerobic, 37 °C
Where a name gives a salt, the structure may show the parent alone.
The reader will find reported fold change of Tryptamine concentration values listed item by item below.
Just the number, please, no unit after it.

Some molecules with known fold change of Tryptamine concentration results, for comparison:
Molecule | Assay Endpoint | Numeric Result
C[C@@H]1C[C@@H]([C@H](O)CC2CC(=O)NC(=O)C2)C(=O)[C@@H](C)C1 [Cycloheximide] | fold change of Tryptamine concentration | 0.956
CCCCCCCCCCCCN=C(N)N | fold change of Tryptamine concentration | 0.927
CC(C)(N)Cc1ccccc1 [Phentermine hydrochloride] | fold change of Tryptamine concentration | 1.03
N#Cc1nn(-c2c(Cl)cc(C(F)(F)F)cc2Cl)c(N)c1[S+]([O-])C(F)(F)F (stereo not given) | fold change of Tryptamine concentration | 1.13
CC(C)c1cccc(C(C)C)c1O | fold change of Tryptamine concentration | 0.931

API: the following record is the query input.
Request the reported fold change of Tryptamine concentration associated with CCCCC(C#N)(Cn1cncn1)c1ccc(Cl)cc1 (stereo not given) 1.2

* * *

test system: Klebsiella aerogenes DSM 30053; assay: fold change of Cadaverine concentration vs plate DMSO controls (fold change (ratio)); higher = more amine produced, active = hit call of the paper (significant change in both replicates, either direction); conditions: 20 µM; incubation time: 27 h, anaerobic, 37 °C
Counter-ions that a name gives are not always drawn.
We use 1 as the dividing line for fold change of Cadaverine concentration: on or above the line is MET, below is NOT MET.

Molecule | Category
Clc1ccc(C(OCCN2CCCCC2)c2ccccc2)cc1 (stereo not drawn) [Cloperastine hydrochloride] | MET
O=C(NCCc1ncc(C(F)(F)F)cc1Cl)c1ccccc1C(F)(F)F | MET
CSc1nc(NC(C)C)nc(NC(C)C)n1 | MET

Tell me whether fold change of Cadaverine concentration is at least 1 here: CN[C@@H]1C[C@@H](c2ccc(Cl)c(Cl)c2)c2ccccc21 [Indatraline hydrochloride] MET

Would you kindly repeat that for CN(C)[C@@H]1C(=O)C(C(N)=O)=C(O)[C@@]2(O)C(=O)C3=C(O)c4c(O)cccc4[C@@](C)(O)[C@H]3C[C@@H]12 [Tetracycline hydrochloride] ? NOT MET
